B1: CPEB3 Ribozyme (parent)
chain: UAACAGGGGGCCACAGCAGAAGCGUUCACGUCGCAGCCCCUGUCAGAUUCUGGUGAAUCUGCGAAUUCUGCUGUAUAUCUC

- Variants of: B1
- RUN DESCRIPTION: self-cleavage, relative activity (ratio to wild type); higher = more cleavage; in vitro, sequencing
Catalogue of self-cleavage readings, one per entry.

• U67A A77U = 0.39

// query Request the reported self-cleavage associated with U31A U49A
// result 0.41

// query May I ask what self-cleavage has been recorded for C38U U67A ?
// result 0.41

// query Returns the measured self-cleavage for the input variant. Input: U1C G9C
// result 0.39
